Biological target: T1, CD300c antigen (11832-H08H, Sino Biological) (UniProt Q08708 21-183)
T1 construct: Bought recombinant antigen coated on ELISA plates; the same entry is used for it
T1 sequence (looked up): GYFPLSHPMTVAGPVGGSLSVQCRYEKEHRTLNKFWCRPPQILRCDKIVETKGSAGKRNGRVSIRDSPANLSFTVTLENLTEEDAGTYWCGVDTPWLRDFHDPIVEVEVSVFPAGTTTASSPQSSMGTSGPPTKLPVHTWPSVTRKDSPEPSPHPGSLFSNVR
Test: binding ELISA, CD300c antigen coated
quantity name: EC50

{"columns": ["binder", "quantity name", "result"],
 "data": [
  ["anti-CD300c monoclonal antibody SK17 (antibody, V domains shown, expressed as heavy and light chains in 293T cells, protein A purified) VH: EVQLLESGGGLVQPGGSLRLSCAASGFTFSSYYWSWVRQAPGKGLEWVSTITGSGGSTDYANSVKGRFTISRDNSKNTLYLQMNSLRAEDTAVYYCATGGGIFDYWGQGTLVTVSS VL: EIVLTQSPGTLSLSPGERATLSCQASQTISNYLNWYQQKPGQAPRLLIYDASNRATGIPDRFSGSGSGTDFTLTISRLEPEDFAVYYCQQYNSYPPSFGQGTKVEIK", "EC50", "≤ 0.2 µg/mL"],
  ["anti-CD300c monoclonal antibody CL10 (antibody, V domains shown, expressed as heavy and light chains in 293T cells, protein A purified) VH: EVQLLESGGGLVQPGGSLRLSCAASGFTFSSYGMHWVRQAPGKGLEWVSAISGSGGSTYYADSVKGRFTISRDNSKNTLYLQMNSLRAEDTAVYYCASGYGLMDVWGQGTLVTVSS VL: QSVLTQPPSASGTPGQRVTISCTRSSGIIASNYVQWYQQLPGTAPKLLIYRNNQRPSGVPDRFSGSKSGTSASLAISGLRSEDEADYYCSSYAGNNNLVFGGGTKLTVL", "EC50", "≤ 0.2 µg/mL"],
  ["anti-CD300c monoclonal antibody SL18 (antibody, V domains shown, expressed as heavy and light chains in 293T cells, protein A purified) VH: RVQLLESGGGLVQPGGSLRLSCAASGFTFSDYHMHWVRQAPGKGLEWVSTISSSGGYTYYAESVKSRFTISRDNSKNTLYLQMNSLRAEDTAVYYCARSIRLPLDYWGQGTLVTVSS VL: QSVLTQPPSASGTPGQRVTISCSGNNIGSKGVHWYQQLPGTAPKLLIYEDSKRPSGVRDRFSGSKSGTSASLAISGLRSEDEADYYCQSYDSTKGVVFGGGTKLTVL", "EC50", "≤ 0.2 µg/mL"],
  ["anti-CD300c monoclonal antibody CK2 (antibody, V domains shown, expressed as heavy and light chains in 293T cells, protein A purified) VH: EVQLLESGGGLVQPGGSLRLSCAASGFTFSSYGMHWVRQAPGKGLEWVSAISGSGTSIYYADSVKGRFTISRDNSKNTLYLQMNSLRAEDTAVYYCARGGTAFDYWGQGTLVTVSS VL: EIVLTQSPGTLSLSPGERATLSCRASQRSDNYLAWYQQKPGQAPRLLIYDASNRATGIPDRFSGSGSGTDFTLTISRLEPEDFAVYYCQQSYSTPFTFGQGTKVETK", "EC50", "≤ 0.2 µg/mL"]
]}

Task item: Given the binder anti-CD300c monoclonal antibody SK12 (antibody, V domains shown, expressed as heavy and light chains in 293T cells, protein A purified) VH: RVQLLESGGGLVQPGGSLRLSCAASGFTFSSYAMHWVRQAPGKGLEWVSAISGSGGDTYHADSVKGRFTISRDNSKNTLYLQMNSLRAEDTAVYYCTRGLSGFDYWGQGTLVTVSS VL: EIVLTQSPGTLSLSPGERATLSCRASQSISSYLNWYQQKPGQAPRLLIYDASNRAPGIPDRFSGSGSGTDFTLTISRLEPEDFAVYYCQQSYSIPITFGQGTKVEIKF , what is its reported EC50?
Reply: ≤ 0.2 µg/mL
